Provenance of the data: patent US8461328B2

- target: JAK3 (Homo sapiens, UniProt P52333)
- Construct: made in house; host or cells: SF9 insect cells (baculovirus)
- Sequence (P52333 783-1124): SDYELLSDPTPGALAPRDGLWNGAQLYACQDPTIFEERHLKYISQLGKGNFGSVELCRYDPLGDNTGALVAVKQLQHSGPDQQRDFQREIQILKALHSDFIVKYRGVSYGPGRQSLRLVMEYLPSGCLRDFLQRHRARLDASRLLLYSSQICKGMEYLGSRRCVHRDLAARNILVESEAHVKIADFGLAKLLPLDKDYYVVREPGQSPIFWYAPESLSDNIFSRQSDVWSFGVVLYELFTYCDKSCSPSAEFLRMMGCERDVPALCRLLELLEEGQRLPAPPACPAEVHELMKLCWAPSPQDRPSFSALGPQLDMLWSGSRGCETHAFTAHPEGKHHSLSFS
- method_notes: JAK3 inhibition (Table 4)
- Assay type: biochemical
- conditions: read-out: JAK3 Ki
property_measured: Ki (nM)

molecule | Ki (nM)
CC(C1CCCO1)n1cnc2cnc3[nH]ccc3c21 (single isomer, unassigned) [Example 418] | 33.5

(P) N#Cc1ccc(N[C@H]2CC[C@H](n3cnc4cnc5[nH]ccc5c43)CC2)nc1 [Example 176]
(Q) O=C(C1CCC1)N1CCC[C@@H](n2cnc3cnc4[nH]ccc4c32)C1 [Example 315]
Please indicate which entry, P or Q , has the lower recorded Ki value. Answer by quoting the chosen item's label.
Q
(Q: 41.3 nM, P: 95.8 nM)

###

- target: TYK2 (Homo sapiens, UniProt P29597)
- Sequence (P29597 873-1187): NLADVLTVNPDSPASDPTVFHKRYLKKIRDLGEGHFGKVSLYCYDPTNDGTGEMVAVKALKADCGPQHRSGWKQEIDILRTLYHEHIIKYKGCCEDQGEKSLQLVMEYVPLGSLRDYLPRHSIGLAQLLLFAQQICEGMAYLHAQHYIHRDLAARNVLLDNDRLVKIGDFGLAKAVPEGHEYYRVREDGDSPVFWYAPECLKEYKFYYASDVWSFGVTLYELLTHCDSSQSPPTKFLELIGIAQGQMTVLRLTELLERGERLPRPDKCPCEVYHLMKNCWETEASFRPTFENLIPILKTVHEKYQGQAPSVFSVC
pKi: −log10 of the molar value.
property_measured: pKi

// worked examples, pKi included
molecule | pKi
c1cncc(CN2CCC[C@@H](n3cnc4cnc5[nH]ccc5c43)C2)c1 [Example 39] | 6.48
CN1CCOCC1C(=O)N1CCC(n2cnc3cnc4[nH]ccc4c32)CC1 (single isomer, unassigned) [Example 197a] | 5.56
O=C(Cc1nc2cnc3[nH]ccc3c2n1C1CCCOC1)N1CCN(CCO)CC1 (racemic) [Example 976] | 6.52
C[C@@H](O)c1nc2cnc3[nH]ccc3c2n1[C@H]1CC[C@H](N2CC[C@@H](C#N)C2)CC1 [Example 610] | 7.75

(A) C[C@@H](O)c1nc2cnc3[nH]ccc3c2n1N1CCCCC1 [Example 882]
(B) O=C(Cc1nc2cnc3[nH]ccc3c2n1C1CCN(Cc2ccccc2)CC1)N1CCS(=O)(=O)CC1 [Example 102]
Of the pair A and B , name the member with the lesser recorded pKi. Returns: label corresponding to the selected item.
B

###

- target: JAK3 (Homo sapiens, UniProt P52333)
- Construct: made in house; host or cells: SF9 insect cells (baculovirus)
- method_notes: JAK3 inhibition (Table 4)
- Format: biochemical
- conditions: read-out: JAK3 Ki
property_measured: Ki (nM)

compound | Ki, nM
N#Cc1ccccc1CN1CCC[C@@H](n2cnc3cnc4[nH]ccc4c32)C1 | 153
N#Cc1cccc(N2CCC(n3cnc4cnc5[nH]ccc5c43)CC2)n1 | 7.69
N#CCCN1CCC(n2c(CCNC(=O)c3ccc(F)cc3)nc3cnc4[nH]ccc4c32)CC1 | 52
O=C(CN1CCCC1=O)N1CCC(n2cnc3cnc4[nH]ccc4c32)CC1 | 844

(I) CC1(C(=O)N2CCC[C@@H](n3cnc4cnc5[nH]ccc5c43)C2)CC1
(II) c1cc(N2CCC(n3cnc4cnc5[nH]ccc5c43)CC2)ncn1
// select label with min value of measured Ki from [ I , II ] Answer with the label corresponding to your selection.
I

###

- target: JAK2 (Homo sapiens)
- Construct: made in house; host or cells: SF9 insect cells (baculovirus)
- method_notes: JAK2 inhibition (Table 4)
- Assay type: biochemical
- conditions: read-out: JAK2 Ki
property_measured: Ki (nM)

(1) N[C@H]1CC[C@H](n2cnc3cnc4[nH]ccc4c32)CC1 [Example 108]
(2) O=S1(=O)CCCN1CCc1nc2cnc3[nH]ccc3c2n1C1CCCCC1 [Example 922]
(3) CCC(C)Cc1nc2cnc3[nH]ccc3c2n1C1CCN(CCC#N)CC1 (racemic) [Example 122]
(4) COCCN1CC[C@H](n2c([C@@H](C)O)nc3cnc4[nH]ccc4c32)C(F)(F)C1 [Example 1013]
(5) Cc1nc2cnc3[nH]ccc3c2n1C1CCN(Cc2ccccc2)CC1(F)F (racemic) [Example 428]
Give the descending Ki ranking for the 5 molecules listed above. // format: requested-order list of labels
3, 2, 1, 4, 5
(3: 281 nM, 2: 49.8 nM, 1: 24.6 nM, 4: 11.1 nM, 5: 0.78 nM)

###

- target: JAK2 (Homo sapiens, UniProt O60674)
- Construct: made in house; host or cells: SF9 insect cells (baculovirus)
- Sequence (O60674 812-1132): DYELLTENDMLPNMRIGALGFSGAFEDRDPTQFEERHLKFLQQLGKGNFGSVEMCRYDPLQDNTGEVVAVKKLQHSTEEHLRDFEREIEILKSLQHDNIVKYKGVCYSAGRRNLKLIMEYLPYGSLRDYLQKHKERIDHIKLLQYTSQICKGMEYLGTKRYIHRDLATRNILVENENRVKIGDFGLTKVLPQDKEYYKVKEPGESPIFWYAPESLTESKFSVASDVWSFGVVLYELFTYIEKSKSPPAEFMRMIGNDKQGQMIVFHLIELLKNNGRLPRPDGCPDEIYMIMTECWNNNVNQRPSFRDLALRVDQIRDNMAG
- method_notes: JAK2 inhibition (Table 4)
- Type: biochemical
- conditions: read-out: JAK2 Ki
property_measured: Ki (nM)

molecule | Ki [nM]
CNc1nc2cnc3[nH]ccc3c2n1C1CCN(Cc2cccc(C#N)c2)CC1 | 5.7

(a) CS(=O)(=O)N1CCC(n2c(CC3CCCC3)nc3cnc4[nH]ccc4c32)CC1
(b) Cc1nc2cnc3[nH]ccc3c2n1[C@@H]1CCCN(Cc2ccccc2)C1
(c) CC(O)c1nc2cnc3[nH]ccc3c2n1C1CC2CCC1O2 (single isomer, unassigned) [Example 907]
(d) CNc1nc2cnc3[nH]ccc3c2n1C1CCCOC1 (stereo not shown)
(e) CS(=O)(=O)CC[C@H]1CC[C@H](n2c(CO)nc3cnc4[nH]ccc4c32)CC1
Order the 5 molecules from highest to lowest Ki. Kindly provide the labels arranged according to the requested ordering.
a, c, d, b, e

(A) NC(=O)Cc1nc2cnc3[nH]ccc3c2n1C1CCCOC1 (racemic)
(B) N#CCCN1CCC(n2c(CC3CCCC3)nc3cnc4[nH]ccc4c32)CC1
Which record shows the lower Ki: the first, A , or the second, B ? Please reply using the label of the selected record.
B

###

- target: JAK3 (Homo sapiens, UniProt P52333)
- Construct: made in house; host or cells: SF9 insect cells (baculovirus)
- method_notes: JAK3 inhibition (Table 4)
- Type: biochemical
- conditions: read-out: JAK3 Ki
pKi: −log10 of the molar value.
property_measured: pKi

molecule | assay_value
C[C@@H](O)c1nc2cnc3[nH]ccc3c2n1[C@H]1CC[C@H](NCC(F)(F)F)CC1 [Example 614] | 7.20
CCN1CC[C@@H](n2c([C@@H](C)O)nc3cnc4[nH]ccc4c32)[C@@H](F)C1 [Example 868] | 6.93
O=S1(=O)CCN(C2CCC(n3cnc4cnc5[nH]ccc5c43)CC2)CC1 (stereo not shown) [Example 766] | 7.16

(I) c1cc2c(ncc3ncn(C4CCNCC4)c32)[nH]1 [Example 28]
(II) N#CCC(=O)N1CCCC(n2c(CC3CC3)nc3cnc4[nH]ccc4c32)C1 (stereo not shown) [Example 676]
(III) Cc1nc2cnc3[nH]ccc3c2n1C1CCN(CC(F)F)CC1 [Example 762]
(IV) N#CC1CCC(n2c(CO)nc3cnc4[nH]ccc4c32)CC1 (stereo not shown) [Example 777]
Rank the 4 molecules: largest pKi first, smallest last. Arrange the labels as the request states and list them.
IV, III, II, I
(IV: 8.98, III: 8.26, II: 7.40, I: 6.66)

(a) Cc1nc2cnc3[nH]ccc3c2n1C1CCC2CC(=O)NC2C1 (single isomer, unassigned) [Example 112a]
(b) N#Cc1nc2cnc3[nH]ccc3c2n1C1CCN(Cc2cccnc2)CC1 [Example 290]
(c) C[C@@H](O)c1nc2cnc3[nH]ccc3c2n1[C@@H]1CCCN(C(=O)C2CC2)C1 [Example 794]
(d) O=C(N1CCC[C@@H](n2cnc3cnc4[nH]ccc4c32)C1)C1(C(F)(F)F)CC1 [Example 228]
(e) CC(O)CN1CCC(n2c(C(C)O)nc3cnc4[nH]ccc4c32)CC1 (stereo not shown) [Example 934]
In this exercise, place the 5 molecules in ascending sequence of their recorded pKi. Please list the labels in the order you were asked to rank them.
c, e, a, d, b

(I) CCn1cc(CN2CCC(n3c([C@@H](C)O)nc4cnc5[nH]ccc5c43)CC2)cn1 [Example 822]
(II) CC(C)(C)OC(=O)N[C@@H]1CC[C@H](n2cnc3cnc4[nH]ccc4c32)C1 [Example 135]
(III) C[C@@H](O)c1nc2cnc3[nH]ccc3c2n1C1CCN(Cc2cnco2)CC1 [Example 898]
Kindly order the items shown according to pKi, from the highest value down. Output the labels ranked as instructed.
III, II, I

###

- target: JAK2 (Homo sapiens, UniProt O60674)
- Construct: made in house; host or cells: SF9 insect cells (baculovirus)
- method_notes: JAK2 inhibition (Table 4)
- Assay type: biochemical
- conditions: read-out: JAK2 Ki
property_measured: Ki (nM)

Answered cases to consult:
molecule | target | assay_value
OCc1nc2cnc3[nH]ccc3c2n1C1CCNCC1(F)F (racemic) | JAK2 (Homo sapiens, UniProt O60674) | 13.6
Cc1nc2cnc3[nH]ccc3c2n1C1CCC(C)(O)CC1 (stereo not shown) | JAK2 (Homo sapiens, UniProt O60674) | 8.02
Cc1nc2cnc3[nH]ccc3c2n1C1CC2CCC1O2 (stereo not shown) | JAK2 (Homo sapiens, UniProt O60674) | 13.9

(A) CC(C)CC(=O)N[C@H]1CC[C@H](n2cnc3cnc4[nH]ccc4c32)CC1
(B) N#CC1CCN([C@H]2CC[C@H](n3c(CO)nc4cnc5[nH]ccc5c43)CC2)CC1
I would appreciate it if you could say which entry, A or B , has the lower Ki value. Choose, then provide that item's label.
A

(1) CC1(COC(=O)N[C@H]2CC[C@H](n3cnc4cnc5[nH]ccc5c43)CC2)CC1
(2) CC(c1ccccc1)N1CCC(n2cnc3cnc4[nH]ccc4c32)CC1 (stereo not shown)
Response body: label of entry with the larger Ki; valid values 1 , 2 . Identify your selection by its label.
1
(1: 15 nM, 2: 6.69 nM)
